Source of measurements: paper PMC6943726

targetDesc: VEGFR-2 (Homo sapiens, UniProt P35968)
Construct: was evaluated using an enzyme assay with a recombinant kinase domain
Sequence (P35968 834-1162 limits assumed): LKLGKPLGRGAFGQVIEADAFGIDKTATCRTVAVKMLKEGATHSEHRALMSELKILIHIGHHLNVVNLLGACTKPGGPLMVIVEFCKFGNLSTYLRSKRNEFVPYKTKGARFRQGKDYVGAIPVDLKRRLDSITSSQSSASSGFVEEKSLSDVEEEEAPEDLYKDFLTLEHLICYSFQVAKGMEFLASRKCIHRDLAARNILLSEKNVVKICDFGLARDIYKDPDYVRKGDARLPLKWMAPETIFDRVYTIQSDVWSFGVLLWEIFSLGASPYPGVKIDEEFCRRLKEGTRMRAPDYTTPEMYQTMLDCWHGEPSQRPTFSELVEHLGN
assayProcedure: HTRF enzyme assay with recombinant VEGFR-2 kinase domain
experimentalParameters: purified recombinant VEGFR-2 kinase domain, HTRF; read-out: Inhibitory Activity, IC50, VEGFR-2
Procedure: The ability of the synthesized compounds to inhibit MET, c-Kit, and VEGFR-2 activities was evaluated using an enzyme assay with a recombinant kinase domain [29]. […] The ability of compounds to inhibit the activity of three kinases (MET, c-Kit, and VEGFR-2) was tested in vitro [30]. Enzyme assays were run in homogeneous time-resolved fluorescence (HTRF) format in 384-well microtiter plates using purified kinases purchased from Invitrogen (Carlsbad, CA, US). […]
Catalogue of IC50 values

O=c1c2c(NCc3cccc4ccccc34)nccc2ccn1-c1ccc(F)cc1	> 5 µM
O=c1c2c(NCc3ccco3)nccc2ccn1-c1ccc(F)cc1	> 5 µM
O=c1c2c(Nc3cccnc3)nccc2ccn1-c1ccc(F)cc1	> 5 µM
Cc1cc2ccnc(NCc3cccnc3)c2c(=O)n1-c1ccccc1 [Compound 10f]	> 5 µM
Cc1cc2ccnc(NCc3cccnc3)c2c(=O)n1-c1ccc(F)cc1 [Compound 10b]	> 5 µM
Cc1cc2ccnc(Nc3cccnc3)c2c(=O)n1-c1ccc(OC(F)(F)F)cc1 [Compound 10m]	> 5 µM

Lookup: Complete the entry with IC50 for O=c1c2c(NCc3ccncc3)nccc2ccn1-c1ccc(F)cc1
Found: 0.601 µM

Lookup: Complete the entry with IC50 for O=c1c2c(NCc3cccnc3)nccc2ccn1-c1ccc(F)cc1
Found: > 5 µM

Lookup: Complete the entry with IC50 for O=c1c2c(Nc3c(Cl)cccc3Cl)nccc2ccn1-c1ccc(F)cc1
Found: 0.691 µM

----------
targetDesc: c-Kit (Homo sapiens, UniProt P10721)
Construct: was evaluated using an enzyme assay with a recombinant kinase domain
Sequence (P10721 589-937 limits assumed): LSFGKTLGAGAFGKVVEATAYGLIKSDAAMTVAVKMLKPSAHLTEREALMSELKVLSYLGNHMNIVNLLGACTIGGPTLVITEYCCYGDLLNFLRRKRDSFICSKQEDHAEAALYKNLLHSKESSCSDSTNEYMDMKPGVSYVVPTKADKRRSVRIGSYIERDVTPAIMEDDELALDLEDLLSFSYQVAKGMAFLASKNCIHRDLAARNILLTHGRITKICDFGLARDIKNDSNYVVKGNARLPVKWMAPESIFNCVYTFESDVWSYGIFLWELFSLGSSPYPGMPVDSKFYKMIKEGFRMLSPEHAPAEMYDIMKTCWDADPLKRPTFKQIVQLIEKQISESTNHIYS
assayProcedure: HTRF enzyme assay with recombinant c-Kit kinase domain
experimentalParameters: purified recombinant c-Kit kinase domain, HTRF; read-out: Inhibitory Activity, IC50, c-Kit
pIC50: −log10 of the molar value.
Catalogue of pIC50 values

Cc1cc2ccnc(NCc3ccco3)c2c(=O)n1-c1ccc(OC(F)(F)F)cc1 [Compound 10p]	< 5.30

Lookup: Find pIC50 for Cc1cc2ccnc(NCc3ccnc4ccccc34)c2c(=O)n1-c1ccccc1 [Compound 10h] on c-Kit (Homo sapiens, UniProt P10721) and write it down.
Found: < 5.30

Lookup: Find pIC50 for Cc1cc2ccnc(NCc3cccc4ccccc34)c2c(=O)n1-c1ccc(OC(F)(F)F)cc1 [Compound 10q] on c-Kit (Homo sapiens, UniProt P10721) and write it down.
Found: < 5.30

Lookup: Find pIC50 for Cc1cc2ccnc(NCc3cccnc3)c2c(=O)n1-c1ccccc1 [Compound 10f] on c-Kit (Homo sapiens, UniProt P10721) and write it down.
Found: < 5.30

Lookup: Find pIC50 for O=c1c2c(Nc3ccc4ccncc4c3)nccc2ccn1-c1ccc(F)cc1 on c-Kit (Homo sapiens, UniProt P10721) and write it down.
Found: < 5.30

Lookup: Find pIC50 for Cc1cc2ccnc(NCc3ccncc3)c2c(=O)n1-c1ccc(F)cc1 [Compound 10c] on c-Kit (Homo sapiens, UniProt P10721) and write it down.
Found: < 5.30

Lookup: Find pIC50 for Cc1cc2ccnc(NCc3ccnc4ccccc34)c2c(=O)n1-c1ccc(OC(F)(F)F)cc1 [Compound 10r] on c-Kit (Homo sapiens, UniProt P10721) and write it down.
Found: 6.77

Lookup: Find pIC50 for O=c1c2c(NCc3cccnc3)nccc2ccn1-c1ccc(F)cc1 on c-Kit (Homo sapiens, UniProt P10721) and write it down.
Found: < 5.30

Lookup: Find pIC50 for Cc1cc2ccnc(NCc3ccnc4ccccc34)c2c(=O)n1-c1ccc(Cl)cc1 [Compound 10l] on c-Kit (Homo sapiens, UniProt P10721) and write it down.
Found: 6.97

Lookup: Find pIC50 for Cc1cc2ccnc(Nc3cccnc3)c2c(=O)n1-c1ccccc1 [Compound 10e] on c-Kit (Homo sapiens, UniProt P10721) and write it down.
Found: < 5.30
